Read-out: ABC Transporter (ABCB11), ABCB11 (gene 8647)
Procedure details: LTEA_HepaRG_ABCB11: Life Technologies and Expression Analysis (LTEA) Assay for ABC Transporter (ABCB11) using HepaRG (AID 2283463)
Measurement setup: mRNA level, 48 h; actives raise or lower the signal
Experimental: LTEA_HepaRG is a cell based, multiplexed-readout assay that uses HepaRG, a human liver cell line, with measurements taken at 48 hours after chemical dosing on a 96-well plate.LTEA_HepaRG_ABCB11 is one of 102 assay component(s) measured in the LTEA HepaRG cell culture assay. It is a marker of Steatosis/NR mediated transport.Data from the assay component LTEA_HepaRG_ABCB11 was analyzed into 1 endpoint. […]
Calls of active or inactive are those of the source. Rule for the calls: active = hit-call score of the fitted dose curve at least 0.9, where 1 is the maximum; inactive = score below 0.9.
Measurement name: outcome

• CC1=CC(=O)/C(=C(/C)O)C(=O)O1 = inactive
• Cc1cn([C@H]2C[C@H](N=[N+]=[N-])[C@@H](CO)O2)c(=O)[nH]c1=O = inactive
• OCCO = inactive
